# pIC50 per entry for Lysine-specific demethylase 5B (Homo sapiens)
pIC50: −log10 of the molar value.

{"columns": ["Smiles", "Value Relation Sign", "pIC50"],
 "data": [
  ["CN1CCN(CCNC(=O)c2cc(-c3ccccc3)nc3c2cnn3-c2ccc(Br)cc2)CC1", "<", 5.00],
  ["Cc1ccc(-n2ncc3c(C(=O)NCc4cn(Cc5ccccc5)nn4)cc(-c4ccc5ccccc5c4)nc32)cc1", "=", 5.41],
  ["CN1CCN(CCNC(=O)c2cc(-c3ccc4ccccc4c3)nc3c2cnn3-c2ccccc2)CC1", "=", 7.60],
  ["Cc1ccc(-n2ncc3c(C(=O)NCCN4CCN(C)CC4)cc(-c4ccccc4)nc32)cc1C", "=", 5.43],
  ["CN1CCN(CCNC(=O)c2cc(-c3ccc(Br)cc3)nc3c2cnn3-c2ccccc2)CC1", "<", 5.00],
  ["Cc1ccc(-n2ncc3c(C(=O)NCc4cn(-c5ccc(F)cc5)nn4)cc(-c4ccc5ccccc5c4)nc32)cc1", "<", 5.00]
]}

----------
inhibition values for the molecules below.
Target System: Lysine-specific demethylase 5B (Homo sapiens, UniProt Q9UGL1)
Sequence (Q9UGL1 whole entry): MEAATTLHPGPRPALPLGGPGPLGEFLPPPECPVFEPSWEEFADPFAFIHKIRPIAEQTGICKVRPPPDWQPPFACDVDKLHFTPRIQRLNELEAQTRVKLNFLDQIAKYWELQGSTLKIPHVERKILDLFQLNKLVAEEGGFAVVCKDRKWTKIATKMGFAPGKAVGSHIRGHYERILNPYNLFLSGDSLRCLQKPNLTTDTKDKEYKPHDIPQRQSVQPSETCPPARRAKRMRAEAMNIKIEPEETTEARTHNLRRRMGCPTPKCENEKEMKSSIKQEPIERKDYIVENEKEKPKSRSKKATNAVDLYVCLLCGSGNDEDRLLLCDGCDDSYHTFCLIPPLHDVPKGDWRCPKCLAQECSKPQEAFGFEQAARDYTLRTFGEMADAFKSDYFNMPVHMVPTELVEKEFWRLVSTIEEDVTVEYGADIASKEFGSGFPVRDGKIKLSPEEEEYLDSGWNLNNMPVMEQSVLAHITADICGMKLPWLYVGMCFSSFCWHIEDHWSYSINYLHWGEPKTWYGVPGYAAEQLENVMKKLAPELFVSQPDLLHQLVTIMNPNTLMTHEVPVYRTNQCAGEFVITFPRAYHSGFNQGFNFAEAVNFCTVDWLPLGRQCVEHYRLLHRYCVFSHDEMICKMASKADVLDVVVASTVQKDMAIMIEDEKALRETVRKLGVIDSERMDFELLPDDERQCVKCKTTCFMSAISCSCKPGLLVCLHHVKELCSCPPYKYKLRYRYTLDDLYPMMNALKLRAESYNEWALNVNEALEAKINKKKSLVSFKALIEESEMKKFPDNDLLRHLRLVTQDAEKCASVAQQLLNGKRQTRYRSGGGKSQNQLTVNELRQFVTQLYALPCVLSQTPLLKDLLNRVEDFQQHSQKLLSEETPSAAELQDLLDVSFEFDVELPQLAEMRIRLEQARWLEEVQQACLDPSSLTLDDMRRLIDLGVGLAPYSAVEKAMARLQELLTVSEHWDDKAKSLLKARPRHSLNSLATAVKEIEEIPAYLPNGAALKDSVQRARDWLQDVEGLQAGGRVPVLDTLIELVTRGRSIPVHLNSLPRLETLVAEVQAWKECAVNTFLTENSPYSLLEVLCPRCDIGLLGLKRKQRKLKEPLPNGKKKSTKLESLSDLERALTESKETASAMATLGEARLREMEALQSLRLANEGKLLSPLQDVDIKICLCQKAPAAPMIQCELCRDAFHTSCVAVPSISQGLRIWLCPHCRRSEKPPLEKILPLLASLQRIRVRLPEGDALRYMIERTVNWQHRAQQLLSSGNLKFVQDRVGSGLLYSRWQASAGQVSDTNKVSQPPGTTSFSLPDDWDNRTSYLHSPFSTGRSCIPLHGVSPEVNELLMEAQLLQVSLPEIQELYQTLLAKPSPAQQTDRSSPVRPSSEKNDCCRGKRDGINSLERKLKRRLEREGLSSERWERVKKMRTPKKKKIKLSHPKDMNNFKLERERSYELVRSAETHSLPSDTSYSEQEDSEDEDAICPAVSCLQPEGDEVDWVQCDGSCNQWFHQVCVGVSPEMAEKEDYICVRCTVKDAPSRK
Method Description: Inhibition of KDM5B (unknown origin) at 10 uM relative to control

{"columns": ["Smiles", "Target System", "Units Of Measure", "inhibition"],
 "data": [
  ["Cc1ccccc1-c1cc(C(=O)NCCN2CCN(C)CC2)c2cnn(-c3ccccc3)c2n1", "Lysine-specific demethylase 5B (Homo sapiens, UniProt Q9UGL1)", "%", 60],
  ["Cc1ccccc1-n1ncc2c(C(=O)NCCN3CCN(C)CC3)cc(-c3ccc4ccccc4c3)nc21", "Lysine-specific demethylase 5B (Homo sapiens, UniProt Q9UGL1)", "%", 86],
  ["Cc1ccc(-n2ncc3c(C(=O)NCc4cn(-c5cccc(F)c5)nn4)cc(-c4ccc5ccccc5c4)nc32)cc1", "Lysine-specific demethylase 5B (Homo sapiens, UniProt Q9UGL1)", "%", 71],
  ["CN1CCN(CCNC(=O)c2cc(-c3ccccc3)nc3c2cnn3-c2ccc(Br)cc2)CC1", "Lysine-specific demethylase 5B (Homo sapiens, UniProt Q9UGL1)", "%", 44],
  ["Cc1cccc(-n2ncc3c(C(=O)NCCN4CCN(C)CC4)cc(-c4ccccc4)nc32)c1", "Lysine-specific demethylase 5B (Homo sapiens, UniProt Q9UGL1)", "%", 14],
  ["CC(C)c1ccc(-n2ncc3c(C(=O)NCCN4CCN(C)CC4)cc(-c4ccccc4)nc32)cc1", "Lysine-specific demethylase 5B (Homo sapiens, UniProt Q9UGL1)", "%", 83],
  ["CN1CCN(CCNC(=O)c2cc(-c3ccc4ccccc4c3)nc3c2cnn3-c2ccc(C(F)(F)F)cc2)CC1", "Lysine-specific demethylase 5B (Homo sapiens, UniProt Q9UGL1)", "%", 33],
  ["CN1CCN(CCNC(=O)c2cc(-c3ccccc3)nc3c2cnn3-c2ccccc2)CC1", "Lysine-specific demethylase 5B (Homo sapiens, UniProt Q9UGL1)", "%", 93],
  ["Cc1ccc(-n2ncc3c(C(=O)NCc4cn(-c5ccccc5)nn4)cc(-c4ccc5ccccc5c4)nc32)cc1", "Lysine-specific demethylase 5B (Homo sapiens, UniProt Q9UGL1)", "%", 74],
  ["CN1CCN(CCNC(=O)c2cc(-c3ccc4ccccc4c3)nc3c2cnn3-c2ccc(Br)cc2)CC1", "Lysine-specific demethylase 5B (Homo sapiens, UniProt Q9UGL1)", "%", 46],
  ["CN1CCN(CCNC(=O)c2cc(-c3ccc(Br)cc3)nc3c2cnn3-c2ccccc2)CC1", "Lysine-specific demethylase 5B (Homo sapiens, UniProt Q9UGL1)", "%", 31],
  ["Cc1ccc(-n2ncc3c(C(=O)NCc4ccccc4)cc(-c4ccc5ccccc5c4)nc32)cc1", "Lysine-specific demethylase 5B (Homo sapiens, UniProt Q9UGL1)", "%", 27],
  ["Cc1cccc(-n2ncc3c(C(=O)NCCN4CCN(C)CC4)cc(-c4ccc5ccccc5c4)nc32)c1", "Lysine-specific demethylase 5B (Homo sapiens, UniProt Q9UGL1)", "%", 53],
  ["CN1CCN(CCNC(=O)c2cc(-c3ccccc3)nc3c2cnn3-c2ccc(Cl)cc2)CC1", "Lysine-specific demethylase 5B (Homo sapiens, UniProt Q9UGL1)", "%", 40],
  ["Cc1ccc(-n2ncc3c(C(=O)Nc4ccccc4)cc(-c4ccc5ccccc5c4)nc32)cc1", "Lysine-specific demethylase 5B (Homo sapiens, UniProt Q9UGL1)", "%", -1],
  ["Cc1ccc(-n2ncc3c(C(=O)NCCN4CCCC4)cc(-c4ccc5ccccc5c4)nc32)cc1", "Lysine-specific demethylase 5B (Homo sapiens, UniProt Q9UGL1)", "%", 58],
  ["CC(C)n1ncc2c(C(=O)NCc3cn(Cc4ccccc4)nn3)cccc21", "Lysine-specific demethylase 5B (Homo sapiens, UniProt Q9UGL1)", "%", 56],
  ["CC(C)c1ccc(-c2cc(C(=O)NCCN3CCN(C)CC3)c3cnn(-c4ccccc4)c3n2)cc1", "Lysine-specific demethylase 5B (Homo sapiens, UniProt Q9UGL1)", "%", 87],
  ["Cc1ccc(-n2ncc3c(C(=O)NCc4cn(Cc5ccccc5)nn4)cc(-c4ccc5ccccc5c4)nc32)cc1", "Lysine-specific demethylase 5B (Homo sapiens, UniProt Q9UGL1)", "%", 72],
  ["O=C(NCc1cn(Cc2ccccc2)nn1)c1cc(-c2ccc3ccccc3c2)nc2c1cnn2-c1ccc(C(F)(F)F)cc1", "Lysine-specific demethylase 5B (Homo sapiens, UniProt Q9UGL1)", "%", 63],
  ["Cc1ccc(-n2ncc3c(C(=O)NC4CCCC4)cc(-c4ccc5ccccc5c4)nc32)cc1", "Lysine-specific demethylase 5B (Homo sapiens, UniProt Q9UGL1)", "%", 5],
  ["CCc1ccc(-c2cc(C(=O)NCCN3CCN(C)CC3)c3cnn(-c4ccccc4)c3n2)cc1", "Lysine-specific demethylase 5B (Homo sapiens, UniProt Q9UGL1)", "%", 83],
  ["CN1CCN(CCNC(=O)c2cc(-c3ccccc3)nc3c2cnn3-c2ccccc2Cl)CC1", "Lysine-specific demethylase 5B (Homo sapiens, UniProt Q9UGL1)", "%", 21],
  ["CN1CCN(CCNC(=O)c2cc(-c3ccc4ccccc4c3)nc3c2cnn3-c2ccccc2)CC1", "Lysine-specific demethylase 5B (Homo sapiens, UniProt Q9UGL1)", "%", 102],
  ["Cc1ccc(-n2ncc3c(C(=O)NCCN4CCCCC4)cc(-c4ccc5ccccc5c4)nc32)cc1", "Lysine-specific demethylase 5B (Homo sapiens, UniProt Q9UGL1)", "%", 40],
  ["Cc1ccc(-n2ncc3c(C(=O)NCCN(C)C)cc(-c4ccc5ccccc5c4)nc32)cc1", "Lysine-specific demethylase 5B (Homo sapiens, UniProt Q9UGL1)", "%", 64],
  ["Cc1ccc(-n2ncc3c(C(=O)NCc4cn(Cc5ccc(C#N)cc5)nn4)cc(-c4ccc5ccccc5c4)nc32)cc1", "Lysine-specific demethylase 5B (Homo sapiens, UniProt Q9UGL1)", "%", 63],
  ["Cc1ccc(-c2cc(C(=O)NCCN3CCN(C)CC3)c3cnn(-c4ccccc4)c3n2)cc1", "Lysine-specific demethylase 5B (Homo sapiens, UniProt Q9UGL1)", "%", 79],
  ["Cc1ccc(-n2ncc3c(C(=O)NCCN4CCN(C)CC4)cc(-c4ccccc4)nc32)cc1C", "Lysine-specific demethylase 5B (Homo sapiens, UniProt Q9UGL1)", "%", 79],
  ["COc1ccc(-c2cc(C(=O)NCCN3CCN(C)CC3)c3cnn(-c4ccccc4)c3n2)cc1", "Lysine-specific demethylase 5B (Homo sapiens, UniProt Q9UGL1)", "%", 88],
  ["C#CNC(=O)c1cc(-c2ccc3ccccc3c2)nc2c1cnn2-c1ccc(C)cc1", "Lysine-specific demethylase 5B (Homo sapiens, UniProt Q9UGL1)", "%", 28],
  ["Cc1cc(C)cc(-n2ncc3c(C(=O)NCCN4CCN(C)CC4)cc(-c4ccccc4)nc32)c1", "Lysine-specific demethylase 5B (Homo sapiens, UniProt Q9UGL1)", "%", 20],
  ["Cc1ccc(-n2ncc3c(C(=O)NCCN4CCN(C)CC4)cc(-c4ccccc4)nc32)cc1", "Lysine-specific demethylase 5B (Homo sapiens, UniProt Q9UGL1)", "%", 95],
  ["Cc1cc(C)cc(-c2cc(C(=O)NCCN3CCN(C)CC3)c3cnn(-c4ccc5ccccc5c4)c3n2)c1", "Lysine-specific demethylase 5B (Homo sapiens, UniProt Q9UGL1)", "%", 35],
  ["Cc1ccc(-n2ncc3c(C(=O)NCc4cn(Cc5ccc(C(F)(F)F)cc5)nn4)cc(-c4ccc5ccccc5c4)nc32)cc1", "Lysine-specific demethylase 5B (Homo sapiens, UniProt Q9UGL1)", "%", 58],
  ["CN1CCN(CCNC(=O)c2cc(-c3ccccc3)nc3c2cnn3-c2ccc(C(F)(F)F)cc2)CC1", "Lysine-specific demethylase 5B (Homo sapiens, UniProt Q9UGL1)", "%", 20]
]}
